- target_entity: Rvs167, P39743
- Sequence (P39743 419-482): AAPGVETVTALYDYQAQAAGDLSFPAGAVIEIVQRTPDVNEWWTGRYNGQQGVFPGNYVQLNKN
- test_method_notes: SPOT array
- measurement_context: median of control spots 2707
Measured SPOT intensity values are reported for all entries that follow.
metric: SPOT intensity

| binder | metric | endpoint_value |
| --- | --- | --- |
| IKTRSVPKIPSIESV | SPOT intensity | 1340 |
| RRGPAPPPPPRASRP | SPOT intensity | 3340 |
| KIRRSSLMIPNPQQF | SPOT intensity | 0 |
| RPKRRAPPPVPKKPS | SPOT intensity | 99 |
| LLLLFVPDSPYDPAI | SPOT intensity | 0 |
| TKRKRPARLIFYDSK | SPOT intensity | 0 |
| LPMNIQPDLPPRKIM | SPOT intensity | 2810 |
